- protocol details: Ex vivo biodistribution in PC-3 tumor-bearing mice
- measurement context: male, NOD.Cg-Rag1^tm1Mom Il2rg^tm1Wjl/SzJ (NRG), mouse, tumor/kidney, total radioactivity, Tumor/kidney uptake ratio, 1 h post-injection
Numbered stars: 1 amine (or outer) side, 2 acyl side, 3 side chain; on linkers, the order of the positions; unused ones are H or OH. Square brackets hold non-standard residues; d marks the D form. Peptide text beside a SMILES is read from it. * marks the point of attachment. DOTA = O=C(O)CN1CCN(CC(=O)O)CCN(CC(=O)*)CCN(CC(=O)O)CC1; NMeH = CN[C@@H](Cc1c[nH]cn1)C(=O)O; X1 = O=C(CN1CCC(N[*:1])CC1)[*:2]; Tle = CC(C)(C)[C@H](N)C(=O)O; Thz = O=C(O)[C@@H]1CSCN1
recorded endpoint: tissue to tissue ratio at 1 h

INSERT INTO measurements (compound, recorded_endpoint, value_observed) VALUES
  ('CC(C)C[C@H](NC(=O)[C@H](Cc1cnc[nH]1)N(C)C(=O)CNC(=O)[C@@H](NC(=O)[C@H](C)NC(=O)[C@H](Cc1c[nH]c2ccccc12)NC(=O)[C@H](CCC(N)=O)NC(=O)[C@@H](Cc1ccccc1)NC(=O)CN1CCC(NC(=O)CN2CCN(CC(=O)O)CCN(CC(=O)O)CCN(CC(=O)O)CC2)CC1)C(C)(C)C)C(=O)N1CSC[C@H]1C(N)=O [[^177Lu]Lu-LW01110, metal not drawn]', 'tissue to tissue ratio at 1 h', 2.96);

Next compound, tissue to tissue ratio at 1 h to be filled in.
Please report tissue to tissue ratio at 1 h for the following compound: CC(C)C[C@H](NC(=O)[C@H](Cc1cnc[nH]1)N(C)C(=O)CNC(=O)[C@@H](NC(=O)[C@H](C)NC(=O)[C@H](Cc1c[nH]c2ccccc12)NC(=O)[C@H](Cc1c[nH]cn1)NC(=O)[C@@H](Cc1ccccc1)NC(=O)CN1CCC(NC(=O)CN2CCN(CC(=O)O)CCN(CC(=O)O)CCN(CC(=O)O)CC2)CC1)C(C)(C)C)C(=O)N1CSC[C@H]1C(N)=O [[^177Lu]Lu-LW01142, metal not drawn] ({DOTA}-[X1][dF]HWA[Tle]G[NMeH]L[Thz]-NH2)
1.95

###

- protocol details: Ex vivo biodistribution in PC-3 tumor-bearing mice
- measurement context: mouse, adrenal glands, Uptake in adrenal glands, 1 h post-injection
Numbered stars: 1 amine (or outer) side, 2 acyl side, 3 side chain; on linkers, the order of the positions; unused ones are H or OH. Square brackets hold non-standard residues; d marks the D form. Peptide text beside a SMILES is read from it. * marks the point of attachment. DOTA = O=C(O)CN1CCN(CC(=O)O)CCN(CC(=O)*)CCN(CC(=O)O)CC1; NMeH = CN[C@@H](Cc1c[nH]cn1)C(=O)O; X1 = O=C(CN1CCC(N[*:1])CC1)[*:2]; Tle = CC(C)(C)[C@H](N)C(=O)O; Thz = O=C(O)[C@@H]1CSCN1
recorded endpoint: tissue uptake at 1 h (%ID/g)
Give bare numbers, in %ID/g.

INSERT INTO assay_data (compound, recorded_endpoint, output_unit, value_observed) VALUES
  ('CC(C)C[C@H](NC(=O)[C@H](Cc1cnc[nH]1)N(C)C(=O)CNC(=O)[C@@H](NC(=O)[C@H](C)NC(=O)[C@H](Cc1c[nH]c2ccccc12)NC(=O)[C@H](Cc1c[nH]cn1)NC(=O)[C@@H](Cc1ccccc1)NC(=O)CN1CCC(NC(=O)CN2CCN(CC(=O)O)CCN(CC(=O)O)CCN(CC(=O)O)CC2)CC1)C(C)(C)C)C(=O)N1CSC[C@H]1C(N)=O [[^177Lu]Lu-LW01142, metal not drawn] ({DOTA}-[X1][dF]HWA[Tle]G[NMeH]L[Thz]-NH2)', 'tissue uptake at 1 h', '%ID/g', 1.43);

Next compound, tissue uptake at 1 h to be filled in.
Please report tissue uptake at 1 h for the following compound: CC(C)C[C@@H](CN1CSC[C@H]1C(N)=O)NC(=O)[C@H](Cc1cnc[nH]1)NC(=O)CN(C)C(=O)[C@@H](NC(=O)[C@H](C)NC(=O)[C@H](Cc1c[nH]c2ccccc12)NC(=O)[C@H](CCC(N)=O)NC(=O)[C@@H](Cc1ccccc1)NC(=O)CN1CCC(NC(=O)CN2CCN(CC(=O)O)CCN(CC(=O)O)CCN(CC(=O)O)CC2)CC1)C(C)C [[^177Lu]Lu-TacsBOMB5, metal not drawn]
0.61

###

Kindly supply the reported tissue uptake at 4 h values for the records listed here.
- protocol details: Ex vivo biodistribution in PC-3 tumor-bearing mice
- measurement context: mouse, brain, Uptake in brain, 4 h post-injection
- Description: SPECT/CT imaging experiments were performed using an MILabs (Houten, The Netherlands) U-SPECT-II/CT scanner with a custom-made ultra-high-sensitivity big mouse collimator (2 mm pinhole size) following previously reported procedures. […] For ex vivo biodistribution studies, the mice were injected with ~2–6 MBq of the radioligand. […] Organs/tissues of interested were collected, weighed, and measured using an automatic gamma counter.
Numbered stars: 1 amine (or outer) side, 2 acyl side, 3 side chain; on linkers, the order of the positions; unused ones are H or OH. Square brackets hold non-standard residues; d marks the D form. Peptide text beside a SMILES is read from it. * marks the point of attachment. DOTA = O=C(O)CN1CCN(CC(=O)O)CCN(CC(=O)*)CCN(CC(=O)O)CC1; NMeH = CN[C@@H](Cc1c[nH]cn1)C(=O)O; X1 = O=C(CN1CCC(N[*:1])CC1)[*:2]; Tle = CC(C)(C)[C@H](N)C(=O)O; Thz = O=C(O)[C@@H]1CSCN1

INSERT INTO measurements (compound, value_observed) VALUES
  ('CC(C)C[C@H](NC(=O)[C@H](Cc1cnc[nH]1)N(C)C(=O)CNC(=O)[C@@H](NC(=O)[C@H](C)NC(=O)[C@H](Cc1c[nH]c2ccccc12)NC(=O)[C@H](Cc1c[nH]cn1)NC(=O)[C@@H](Cc1ccccc1)NC(=O)CN1CCC(NC(=O)CN2CCN(CC(=O)O)CCN(CC(=O)O)CCN(CC(=O)O)CC2)CC1)C(C)(C)C)C(=O)N1CSC[C@H]1C(N)=O [[^177Lu]Lu-LW01142, metal not drawn] ({DOTA}-[X1][dF]HWA[Tle]G[NMeH]L[Thz]-NH2)', '0.01 %ID/g');

Next compound, tissue uptake at 4 h to be filled in.
Please report tissue uptake at 4 h for the following compound: CC(C)C[C@@H](CN1CSC[C@H]1C(N)=O)NC(=O)[C@H](Cc1cnc[nH]1)NC(=O)CN(C)C(=O)[C@@H](NC(=O)[C@H](C)NC(=O)[C@H](Cc1c[nH]c2ccccc12)NC(=O)[C@H](CCC(N)=O)NC(=O)[C@@H](Cc1ccccc1)NC(=O)CN1CCC(NC(=O)CN2CCN(CC(=O)O)CCN(CC(=O)O)CCN(CC(=O)O)CC2)CC1)C(C)C [[^177Lu]Lu-TacsBOMB5, metal not drawn]
0.02 %ID/g

###

- protocol details: Ex vivo biodistribution in PC-3 tumor-bearing mice
- measurement context: male, NOD.Cg-Rag1^tm1Mom Il2rg^tm1Wjl/SzJ (NRG), mouse, tumor/pancreas, total radioactivity, Tumor/pancreas uptake ratio, 120 h post-injection
Numbered stars: 1 amine (or outer) side, 2 acyl side, 3 side chain; on linkers, the order of the positions; unused ones are H or OH. Square brackets hold non-standard residues; d marks the D form. Peptide text beside a SMILES is read from it. * marks the point of attachment. DOTA = O=C(O)CN1CCN(CC(=O)O)CCN(CC(=O)*)CCN(CC(=O)O)CC1; NMeH = CN[C@@H](Cc1c[nH]cn1)C(=O)O; X1 = O=C(CN1CCC(N[*:1])CC1)[*:2]; Tle = CC(C)(C)[C@H](N)C(=O)O; Thz = O=C(O)[C@@H]1CSCN1
recorded endpoint: tissue to tissue ratio at 120 h
Numbers only.

INSERT INTO assay_data (compound, recorded_endpoint, value_observed) VALUES
  ('CC(C)C[C@H](NC(=O)[C@H](Cc1cnc[nH]1)N(C)C(=O)CNC(=O)[C@@H](NC(=O)[C@H](C)NC(=O)[C@H](Cc1c[nH]c2ccccc12)NC(=O)[C@H](CCC(N)=O)NC(=O)[C@@H](Cc1ccccc1)NC(=O)CN1CCC(NC(=O)CN2CCN(CC(=O)O)CCN(CC(=O)O)CCN(CC(=O)O)CC2)CC1)C(C)(C)C)C(=O)N1CSC[C@H]1C(N)=O [[^177Lu]Lu-LW01110, metal not drawn]', 'tissue to tissue ratio at 120 h', 6.6);

Next compound, tissue to tissue ratio at 120 h to be filled in.
Please report tissue to tissue ratio at 120 h for the following compound: CC(C)C[C@H](NC(=O)[C@H](Cc1cnc[nH]1)N(C)C(=O)CNC(=O)[C@@H](NC(=O)[C@H](C)NC(=O)[C@H](Cc1c[nH]c2ccccc12)NC(=O)[C@H](Cc1c[nH]cn1)NC(=O)[C@@H](Cc1ccccc1)NC(=O)CN1CCC(NC(=O)CN2CCN(CC(=O)O)CCN(CC(=O)O)CCN(CC(=O)O)CC2)CC1)C(C)(C)C)C(=O)N1CSC[C@H]1C(N)=O [[^177Lu]Lu-LW01142, metal not drawn] ({DOTA}-[X1][dF]HWA[Tle]G[NMeH]L[Thz]-NH2)
4.08
